- assay-system: T1, recombinant human IL-25 protein (human, UniProt Q9H293 33-177)
- T1 sequence: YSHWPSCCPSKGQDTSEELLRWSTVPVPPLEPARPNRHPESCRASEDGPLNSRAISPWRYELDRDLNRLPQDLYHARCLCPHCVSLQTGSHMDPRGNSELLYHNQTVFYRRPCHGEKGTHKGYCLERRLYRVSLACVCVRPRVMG
- protocol: cell-based or functional assay
metric-name: IC50, IL-25 induced NF-kB signaling (SEAP) in HEK-Blue IL-17 reporter cells (nM)

[[record]]
binder = "IL25Ab8 (antibody, IgG1, V domains shown) VH: QVQLVQSGAEVKKPGASVKVSCKASGYSFTGYTMNWVRQAHGKNLEWMGLINPDNGGTSHKQKFQGRVTMTVDKSISTAYMELSRLRSDDTAVYYCAREGYYGPSPFHHYAMDYWGQGTLVTVSS VL: DIQMTQSPSSLSASVGDRVTITCQASQDISNYLNWYQQKPDGTIKLLIYYTSTLHTGVPSRFSGSGSGTDYTLTISSLQPEDIATYYCQQYSKLPYTFGGGTKLEIK"
reading_unit = "nM"
observed = 0.041


All values here come from patent US20260242458A1.
